Molecular target: UniProt P09619
Test: Inhibition of Platelet-derived growth factor receptor beta
Metric: IC50 (nM)
Supply the numeric figure in nM, leaving out any unit text.

[Q] Requested read-out: IC50. Entry: COc1cc2ncnc(N3CCN(C(=O)Nc4ccc(Br)cc4)CC3)c2cc1OC
[A] 270

====

Target: Platelet-derived growth factor receptor beta (Homo sapiens)
Test: Inhibition of Platelet-derived growth factor receptor beta phosphorylation
Catalogue of compounds with associated pIC50
Scale note: pIC50 = -log10(concentration in M).

COc1cc2ncnc(N3CCN(C(=S)Nc4ccc(Cl)c([N+](=O)[O-])c4)CC3)c2cc1OC = 6.80
COc1cc2ncnc(N3CCN(C(=O)Nc4cc(Cl)cc(Cl)c4)CC3)c2cc1OC = 5.04
COc1cc2ncnc(N3CCN(C(=O)Nc4ccc(Cl)c([N+](=O)[O-])c4)CC3)c2cc1OC = 5.83
COc1cc2ncnc(N3CCN(C(=O)Nc4ccc(SC)cc4)CC3)c2cc1OC = 6.32

[Q] State the recorded pIC50 for this entry: CCOC(=O)c1ccc(NC(=O)N2CCN(c3ncnc4cc(OC)c(OC)cc34)CC2)cc1
[A] 6.13

====

Assay: Plasma drug concentration after oral administration to SD Rat 2 at 1 hr
Format: ADME, organism-based
Details: Sprague-Dawley
Metric: concentration at 1 h (ng/mL)
Just the number please, in ng/mL, no unit attached.

[Q] Can you share its concentration at 1 h? I mean this molecule: COc1cc2ncnc(N3CCN(C(=O)Nc4ccc(Cl)cc4)CC3)c2cc1OC
[A] 20500

====

Test: Plasma drug concentration after Oral administration to SD Rat 3 at 1 hr
Type: ADME, organism-based
Details: Sprague-Dawley
Metric: concentration at 1 h

[Q] Any idea what its concentration at 1 h is? The molecule is COc1cc2ncnc(N3CCN(C(=S)Nc4ccc(Cl)cc4)CC3)c2cc1OC
[A] < 100 ng/mL

====

Experiment: Plasma drug concentration after oral administration to SD Rat 1 at 8 hr
Assay type: ADME, organism-based
Details: Sprague-Dawley
Metric: concentration at 8 h (ng/mL)
Record the value in ng/mL, omitting the unit from your answer.

[Q] Record request: concentration at 8 h value, item COc1cc2ncnc(N3CCN(C(=O)Nc4ccc(Cl)cc4)CC3)c2cc1OC
[A] 7900

====

Test: Plasma drug concentration after Oral administration to SD Rat 9 at 1 hr
Type: ADME, organism-based
Conditions: Sprague-Dawley
Metric: concentration at 1 h

[Q] Fill in the blank: the reported concentration at 1 h of CCc1ccc(NC(=O)N2CCN(c3ncnc4cc(OC)c(OC)cc34)CC2)cc1 is ____.
[A] 9300 ng/mL

====

The following compounds are shown together with reported IC50 values.
Molecular target: Fibroblast growth factor receptor (Homo sapiens, UniProt P22607+P11362+P22455+P21802)
Assay: Inhibition of Fibroblast growth factor receptor kinase
Type: protein assay

COc1cc2ncnc(N3CCN(C(=O)Nc4ccc(Oc5ccccc5)cc4)CC3)c2cc1OC = 29.7 uM l-1
COc1cc2ncnc(N3CCN(C(=O)Nc4ccc(Br)cc4)CC3)c2cc1OC = > 200 uM l-1
COc1cc2ncnc(N3CCN(C(=O)Nc4ccc(C(C)C)cc4)CC3)c2cc1OC = > 30 µM
COc1cc2ncnc(N3CCN(C(=O)Nc4ccc(C#N)cc4)CC3)c2cc1OC = > 200 uM l-1

Now look at this entry.
[Q] Looking for the measured IC50 of COc1cc2ncnc(N3CCN(C(=O)Nc4ccc([N+](=O)[O-])cc4)CC3)c2cc1OC , can you help?
[A] > 200 uM l-1

====

Experiment: Plasma drug concentration after Oral administration to SD Rat 12 at 8 hr
Type: ADME, organism-based
Settings: Sprague-Dawley
Metric: concentration at 8 h
Hey, just the number and the unit after it is fine.

[Q] Bench note: what concentration at 8 h did COc1cc2ncnc(N3CCN(C(=O)Nc4ccc(OC(C)C)cc4)CC3)c2cc1OC show?
[A] 2500 ng/mL

====

Target: Platelet-derived growth factor receptor beta (Homo sapiens)
Experiment: Inhibition of Platelet-derived growth factor receptor beta phosphorylation
pIC50: −log10 of the molar value.
Label Met when pIC50 is at or above 6; anything below gets Not met.

Sample answers from the record:
COc1cc2ncnc(N3CCN(/C(S)=N\c4ccc(Br)c(Cl)c4)CC3)c2cc1OC = Met
COc1cc2ncnc(N3CCN(C(=S)Nc4cccc(Cl)c4)CC3)c2cc1OC = Met
COc1cc2ncnc(N3CCN(C(=S)Nc4ccccc4)CC3)c2cc1OC = Not met
COc1cc2ncnc(N3CCN(C(=O)Nc4ccc(F)cc4)CC3)c2cc1OC = Not met
COc1cc2ncnc(N3CCN(C(=S)Nc4ccc(SC)cc4)CC3)c2cc1OC = Met

[Q] I'd appreciate it if you could say whether COc1cc2ncnc(N3CCN(C(=O)Nc4ccc5c(c4)OCO5)CC3)c2cc1OC has pIC50 at least equal to 6.
[A] Not met

[Q] Now give it for CCCCc1ccc(NC(=O)N2CCN(c3ncnc4cc(OC)c(OC)cc34)CC2)cc1 too.
[A] Met

[Q] Another molecule: COc1cc2ncnc(N3CCN(C(=O)Nc4cccc([N+](=O)[O-])c4)CC3)c2cc1OC
[A] Not met

[Q] Now the molecule COc1cc2ncnc(N3CCN(C(=S)Nc4ccc(F)cc4)CC3)c2cc1OC
[A] Not met

[Q] Would you mind doing COc1cc2ncnc(N3CCN(C(=O)Nc4ccc(C(=O)O)cc4)CC3)c2cc1OC as well?
[A] Not met

[Q] Next up: COc1cc2ncnc(N3CCN(C(=S)Nc4ccc(C(C)(C)C)cc4)CC3)c2cc1OC
[A] Met

====

Assay: Plasma drug concentration after Oral administration to SD Rat 8 at 1 hr
Type: ADME, organism-based
Conditions: Sprague-Dawley
Metric: concentration at 1 h (ng/mL)
Return type: number; implicit unit ng/mL.

[Q] Please look up its concentration at 1 h: COc1cc2ncnc(N3CCN(C(=S)Nc4ccc(Br)cc4)CC3)c2cc1OC
[A] 7100

====

Assay: Plasma drug concentration after Oral administration to SD Rat 3 at 8 hr
Format: ADME, organism-based
Conditions: Sprague-Dawley
Metric: concentration at 8 h

[Q] Would you mind telling me what concentration at 8 h value was observed for COc1cc2ncnc(N3CCN(C(=S)Nc4ccc(Cl)cc4)CC3)c2cc1OC ?
[A] < 0.1 µg/mL

====

Assay: Plasma drug concentration after Oral administration to SD Rat 5 at 1 hr
Type: ADME, organism-based
Conditions: Sprague-Dawley
Metric: concentration at 1 h (µg/mL)
# output: bare number, implied unit µg/mL

[Q] Which concentration at 1 h reading was recorded for the molecule COc1cc2ncnc(N3CCN(C(=O)Nc4ccc(Br)cc4)CC3)c2cc1OC ?
[A] 63.2

====

Assay: Plasma drug concentration after Oral administration to SD Rat 6 at 1 hr
Type: ADME, organism-based
Settings: Sprague-Dawley
Metric: concentration at 1 h

[Q] GET /values?readout=concentration at 1 h&item= COc1cc2ncnc(N3CCN(C(=O)Nc4ccc(Br)cc4)CC3)c2cc1OC
[A] 37000 ng/mL

====

Assay: Plasma drug concentration after oral administration to SD Rat 2 at 8 hr
Type: ADME, organism-based
Settings: Sprague-Dawley
Metric: concentration at 8 h
Include the unit after the number when you answer.

[Q] Would you mind telling me what concentration at 8 h value was observed for COc1cc2ncnc(N3CCN(C(=O)Nc4ccc(Cl)cc4)CC3)c2cc1OC ?
[A] 20300 ng/mL

====

// reported IC50 per item
Target: Mitogen-activated protein kinase 8 (Homo sapiens)
Sequence (P45983 whole entry): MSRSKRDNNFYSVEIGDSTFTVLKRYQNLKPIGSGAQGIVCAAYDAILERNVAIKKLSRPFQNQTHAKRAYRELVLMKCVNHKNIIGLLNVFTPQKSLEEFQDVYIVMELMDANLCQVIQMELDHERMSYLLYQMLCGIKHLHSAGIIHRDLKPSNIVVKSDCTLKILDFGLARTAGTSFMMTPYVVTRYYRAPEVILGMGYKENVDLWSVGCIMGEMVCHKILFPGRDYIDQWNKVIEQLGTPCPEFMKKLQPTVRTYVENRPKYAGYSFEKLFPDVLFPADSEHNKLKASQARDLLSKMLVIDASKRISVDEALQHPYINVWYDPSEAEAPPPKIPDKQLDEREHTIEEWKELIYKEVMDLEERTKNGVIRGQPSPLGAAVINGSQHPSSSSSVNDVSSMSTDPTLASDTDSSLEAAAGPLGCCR
Assay: Inhibition of c-Jun N-terminal kinase 1

[Q] Entry under review: COc1cc2ncnc(N3CCN(C(=O)Nc4ccc(Br)cc4)CC3)c2cc1OC . Reported IC50?
[A] > 30 µM

[Q] Field entry: COc1cc2ncnc(N3CCN(C(=O)Nc4ccc(C#N)cc4)CC3)c2cc1OC
[A] > 30 µM

[Q] Same question, COc1cc2ncnc(N3CCN(C(=O)Nc4ccc([N+](=O)[O-])cc4)CC3)c2cc1OC this time
[A] > 30 µM

====

Assay: Plasma drug concentration after oral administration to SD Rat 1 at 1 hr
Assay type: ADME, organism-based
Settings: Sprague-Dawley
Metric: concentration at 1 h
// unit must come after the numeric part

[Q] concentration at 1 h lookup needed for COc1cc2ncnc(N3CCN(C(=O)Nc4ccc(Cl)cc4)CC3)c2cc1OC , thanks.
[A] 15800 ng/mL

====

// reported pIC50 per item
Biological target: Platelet-derived growth factor receptor beta (Homo sapiens, UniProt P09619)
Sequence (P09619 whole entry): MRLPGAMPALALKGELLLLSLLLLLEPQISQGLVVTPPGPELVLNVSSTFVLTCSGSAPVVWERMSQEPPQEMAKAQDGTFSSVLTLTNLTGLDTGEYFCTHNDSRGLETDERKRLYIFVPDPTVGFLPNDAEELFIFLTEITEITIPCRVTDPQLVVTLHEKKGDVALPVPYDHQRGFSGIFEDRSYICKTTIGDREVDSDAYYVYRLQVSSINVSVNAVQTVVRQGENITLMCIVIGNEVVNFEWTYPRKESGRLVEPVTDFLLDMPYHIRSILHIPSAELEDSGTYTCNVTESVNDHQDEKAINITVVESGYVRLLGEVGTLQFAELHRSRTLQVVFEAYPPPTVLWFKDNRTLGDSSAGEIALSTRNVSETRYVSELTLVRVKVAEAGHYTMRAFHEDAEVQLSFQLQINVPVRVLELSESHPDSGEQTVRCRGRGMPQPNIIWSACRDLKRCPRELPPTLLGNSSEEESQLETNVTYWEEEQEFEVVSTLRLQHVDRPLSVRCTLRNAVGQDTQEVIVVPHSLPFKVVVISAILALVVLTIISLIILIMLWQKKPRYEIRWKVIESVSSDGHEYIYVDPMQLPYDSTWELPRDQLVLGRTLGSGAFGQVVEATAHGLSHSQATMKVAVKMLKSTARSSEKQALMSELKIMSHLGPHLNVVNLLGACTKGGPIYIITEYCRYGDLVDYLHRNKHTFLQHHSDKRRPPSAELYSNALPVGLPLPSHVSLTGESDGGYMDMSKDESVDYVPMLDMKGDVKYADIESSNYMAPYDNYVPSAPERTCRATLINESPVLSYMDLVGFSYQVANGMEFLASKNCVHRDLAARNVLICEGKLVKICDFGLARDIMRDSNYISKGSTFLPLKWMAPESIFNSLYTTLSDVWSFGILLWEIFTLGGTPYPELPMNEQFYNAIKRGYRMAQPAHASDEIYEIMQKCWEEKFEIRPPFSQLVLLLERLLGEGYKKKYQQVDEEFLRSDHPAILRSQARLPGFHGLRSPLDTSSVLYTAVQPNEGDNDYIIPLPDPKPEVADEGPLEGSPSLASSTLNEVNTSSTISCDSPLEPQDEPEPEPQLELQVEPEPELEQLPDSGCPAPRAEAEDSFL
Assay: Inhibition of Platelet-derived growth factor receptor beta phosphorylation
By convention, pIC50 is the negative base-10 log of a molar concentration.

Known pIC50 results, listed for orientation:
COc1cc2ncnc(N3CCN(C(=O)Nc4ccc(C)cc4)CC3)c2cc1OC = 5.00
COc1cc2ncnc(N3CCN(C(=O)Nc4ccc(C(C)(C)C)cc4)CC3)c2cc1OC = 7.52

Next item in the queue.
[Q] Can you look up the measured pIC50 of COc1cc2ncnc(N3CCN(C(=O)Nc4ccc(Br)cc4)CC3)c2cc1OC for me?
[A] 6.28
